Experiment: mitochondrial function rescue without frataxin homolog – Friedreich's ataxia, plus single-dose screen, dose response (AID 1465)
Conditions: S. cerevisiae Yfh1-off respiration, WST-1 reduction, 72 h; at 50 µM; stronger effect = higher value
Hit rate of the full screen: of about 220,000 compounds, about 160 (0.073%) were called active. Not all results are given here. Measured potencies and affinities stand elsewhere.
Parameter threshold = 1. Response is 1.0 when fold induction meets or exceeds it, else 0.0.

In [3]: df
Out[3]:
                                    molecule  classification
 0  CC(=O)NC(c1ccco1)c1ccc2cccnc2c1O (stereo not drawn)             0.0
 1  CO/N=C/c1ccc(N2CCN(C(=O)c3ccc(F)cc3)CC2)c([N+](=O)[O-])c1             0.0
 2  CCC(=O)NC(c1cccs1)c1ccc2cccnc2c1O (stereo not drawn)             0.0
 3  CCOc1ccc(Oc2ccc(S(=O)(=O)N3CCOCC3)cc2N)cc1             1.0
 4              CCCCNC1=CC(=O)C(=O)c2ccccc21             1.0
 5                CCC(=O)/C=C1/Sc2ccccc2N1CC             0.0
 6  CC(C)C(c1nnnn1CCc1ccccc1)N1CCOCC1 (stereo not drawn)             1.0
 7            CC[n+]1c(/C=C(\C)SC)sc2ccccc21             0.0
 8                Oc1ccc(CN2CCCCC2)c2cccnc12             0.0
 9  O=c1oc2ccccc2cc1C1=Nn2c(nnc2-c2cccnc2)SC1             1.0
10  CCCC(=O)NC(c1ccco1)c1cc(Cl)c2cccnc2c1O (stereo not drawn)             0.0
11  CCCC(=O)NC(c1ccc(OC)c(OC)c1)c1cc(Cl)c2cccnc2c1O (stereo not drawn)             1.0
12  Cc1c(S(=O)(=O)N2CCN(C(c3ccccc3)c3ccccc3)CC2)c(=O)n(C)c(=O)n1C             1.0
13     Cc1ccc(S(=O)(=O)NCC(=O)OCc2ccccc2)cc1             0.0
14  COC(=O)c1cc(OC)c(OC)cc1NC(=O)c1cccc(OC)c1OC             1.0
15    CCOC(=O)c1[nH]c2ccccc2c1NC(=O)C1CCCCC1             1.0
16  CC[n+]1c(/C=C2/C=C(C)CC(C)C2)sc2ccccc21 (stereo not drawn)             0.0
17  CCC(C(=O)O)N1C(=O)/C(=C/C(C)=C/c2ccccc2)SC1=S (stereo not drawn)             1.0
18      Oc1ccc(CN2CCN(c3ccccc3)CC2)c2cccnc12             0.0
19  CCN(CC)S(=O)(=O)c1ccc(N/N=C/c2cccnc2)nc1             1.0
20  COc1ccc(NC(=S)NNC(=O)COc2ccc(Cl)cc2Cl)cc1             0.0

----------
Listed below: fold induction values for each entry.
Test: mitochondrial function rescue without frataxin homolog – Friedreich's ataxia, plus single-dose screen, dose response (AID 1465)
Conditions: S. cerevisiae Yfh1-off respiration, WST-1 reduction, 72 h; at 50 µM; stronger effect = higher value
Hit rate of the full screen: of about 220,000 compounds, about 160 (0.073%) were called active. These entries were drawn from the full list. Results with a measured potency or affinity are listed apart.
measurement.type: fold induction

>>> df
                                   molecule  measurement_type  assay_result
0            COC(=O)c1nc(NC2=NCCCCC2)n[nH]1    fold induction          1.02
1  CC1CCCC(NC(=O)c2ccc3c(=O)n(CC4CCCO4)c(=O)[nH]c3c2)C1C (stereo not drawn)    fold induction          1.02
2         COC1=C(c2ccccc2)C(=O)c2ccccc2C1=O    fold induction          1.01

----------
Listed compounds paired with reported fold induction
Test: mitochondrial function rescue without frataxin homolog – Friedreich's ataxia, plus single-dose screen, dose response (AID 1465)
Settings: S. cerevisiae Yfh1-off respiration, WST-1 reduction, 72 h; at 50 µM; stronger effect = higher value
The campaign covered roughly 220,000 compounds. About 160 (0.073%) were called active. A selection follows. Entries with a potency or affinity are not part of this list.
measurement.type: fold induction

In [3]: df
Out[3]:
                                   compound  measurement_type  assay_result
0  CC1CCC(NC(=S)NCCN(C)C)CC1 (stereo unspecified)    fold induction             1
1  NC(=S)n1[nH]c(-c2ccc([N+](=O)[O-])cc2)c(N=Nc2cccc(Cl)c2)c1=O    fold induction          1.01
2  CC(C)C(=O)NC(c1ccccc1)c1cc([N+](=O)[O-])c2cccnc2c1O (stereo unspecified)    fold induction          0.98
3  COc1ccccc1C(CC(=O)N1CCCC1)c1ccc2c(c1)OCO2 (stereo unspecified)    fold induction          0.99
4     Cc1cc(C)nc(SCC(=O)c2cc3ccccc3oc2=O)n1    fold induction          1.02
5             COC(=O)c1ccccc1NC(=O)Cn1ccnc1    fold induction          1.02

----------
Experiment: mitochondrial function rescue without frataxin homolog – Friedreich's ataxia, plus single-dose screen, dose response (AID 1465)
Conditions: S. cerevisiae Yfh1-off respiration, WST-1 reduction, 72 h; at 50 µM; stronger effect = higher value
About 160 (0.073%) of roughly 220,000 compounds were called active. Not all results are given here. Potency and affinity values are given separately.
measurement.type: fold induction

In [3]: df
Out[3]:
                                   molecule  measurement_type     assay_result
0            O=C1C=C(Nc2ccccc2)c2ccccc2C1=O    fold induction     1 (inactive)
1   Cc1cc(C)n2nc(-c3sccc3-n3c(C)ccc3C)cc2n1    fold induction  1.01 (inactive)
2  CCCC(=O)NC(c1ccco1)c1c(O)ccc2ccccc12 (configuration not stated)    fold induction  0.99 (inactive)
3      COc1ccc(NC(=O)c2csc3c2CCCCC3)c(OC)c1    fold induction     1 (inactive)
4  COc1ccc2c(c1)c(CCN1C(=O)c3ccccc3C1=O)cn2C(=O)c1ccco1    fold induction  1.01 (inactive)
5  CC(C)CC(=O)NC(c1cccs1)c1ccc2cccnc2c1O (configuration not stated)    fold induction  0.99 (inactive)
6      Cn1cccc1/C=C1\SC(=S)N(Nc2ccccc2)C1=O    fold induction  1.02 (inactive)
